# credit: paper PMC6648591

- assayed-target: T1, mature Rhizomucor miehei lipase (Rhizomucor miehei, UniProt P19515 95-363)
- T1 sequence (looked up): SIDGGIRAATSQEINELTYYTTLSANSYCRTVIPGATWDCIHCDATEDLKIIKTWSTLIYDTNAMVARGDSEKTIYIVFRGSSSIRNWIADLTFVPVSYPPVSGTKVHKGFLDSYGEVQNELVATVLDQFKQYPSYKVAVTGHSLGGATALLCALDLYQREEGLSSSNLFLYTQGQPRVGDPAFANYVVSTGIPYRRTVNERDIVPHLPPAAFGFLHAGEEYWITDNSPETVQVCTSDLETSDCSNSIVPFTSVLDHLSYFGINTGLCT
- protocol-text: fluorescence polarisation; 0.9 uM A488-labelled peptide mixed with mature RmL at 0.0002-10 uM, in duplicate; 50 mM HEPES pH 7.5, 100 mM NaCl, 1 mM CaCl2; 30 min at room temperature; Langmuir 1:1 fit
- particulars: both partners purified
No end group written: not given here.
observable: Kd (nM)

>>> numeric_readout("SDVETKYGMALNATSYC(A488) [propeptide fragment SDVETKYGMALNATSYC-A488]")
200
